# tested_on: UniProt:Q01959
# Sequence (Q01959 whole entry): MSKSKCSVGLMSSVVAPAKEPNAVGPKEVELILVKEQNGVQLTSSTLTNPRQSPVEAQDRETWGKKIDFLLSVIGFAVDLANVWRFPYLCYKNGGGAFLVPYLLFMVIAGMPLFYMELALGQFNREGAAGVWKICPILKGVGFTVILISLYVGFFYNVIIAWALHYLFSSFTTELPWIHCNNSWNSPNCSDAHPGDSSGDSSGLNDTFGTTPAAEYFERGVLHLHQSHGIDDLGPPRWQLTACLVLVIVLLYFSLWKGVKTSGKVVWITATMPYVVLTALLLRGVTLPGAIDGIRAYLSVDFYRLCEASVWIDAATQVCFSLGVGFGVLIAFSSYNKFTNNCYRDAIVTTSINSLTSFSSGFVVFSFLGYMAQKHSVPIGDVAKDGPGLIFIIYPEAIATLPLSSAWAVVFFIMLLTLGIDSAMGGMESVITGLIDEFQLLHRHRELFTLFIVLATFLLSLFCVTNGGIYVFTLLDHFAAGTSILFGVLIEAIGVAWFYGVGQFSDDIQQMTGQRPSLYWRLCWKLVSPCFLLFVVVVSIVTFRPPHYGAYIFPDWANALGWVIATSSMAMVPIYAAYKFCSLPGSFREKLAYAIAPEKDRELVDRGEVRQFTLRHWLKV
observation_type: AC50

| molecule | AC50 |
| --- | --- |
| CO[C@@]1(NC(=O)C(C(=O)O)c2ccc(O)cc2)C(=O)N2C(C(=O)O)=C(CSc3nnnn3C)CO[C@@H]21 (some centres not stated) | > 30 µM |

Exercise: Which AC50 is reported with UniProt:Q01959 for this entry: `Oc1ccc(OCc2ccccc2)cc1` ?
Solution: 8.56 µM

Exercise: Request: AC50, test system UniProt:Q01959, entry `C[C@@H](CN1CC(=O)NC(=O)C1)N1CC(=O)NC(=O)C1`
Solution: > 30 µM

Exercise: Recall the recorded AC50 for CN1CCN(C(c2ccccc2)c2ccc(Cl)cc2)CC1 (configuration not stated) with UniProt:Q01959 and state it.
Solution: 0.225 µM

Exercise: Under UniProt:Q01959: AC50 value of `Cn1c(CCCC(=O)O)nc2cc(N(CCCl)CCCl)ccc21` ?
Solution: > 30 µM

Exercise: // lookup AC50 | system=UniProt:Q01959 | key= `CC1=C(C/C=C(\C)CCC[C@H](C)CCC[C@H](C)CCCC(C)C)C(=O)c2ccccc2C1=O`
Solution: > 30 µM

Exercise: Give the reported AC50 for `C[C@H](Nc1ncnc2[nH]cnc12)c1cc2cccc(Cl)c2c(=O)n1-c1ccccc1` (system: UniProt:Q01959).
Solution: > 30 µM

Exercise: So what AC50 did `O=C(O)[C@@H](S)[C@@H](S)C(=O)O` get with UniProt:Q01959?
Solution: > 30 µM

Exercise: Hi! What's the reported AC50 for CC(=O)OCC(=O)[C@@]1(O)CC[C@H]2[C@@H]3C[C@H](C)C4=CC(=O)C=C[C@]4(C)[C@H]3[C@@H](O)C[C@@]21C [METHYLPREDNISOLONE ACETATE] on UniProt:Q01959?
Solution: > 30 µM

Exercise: Query for UniProt:Q01959: what AC50 does the record show for CC(CN(C)C)CN1c2ccccc2CCc2ccccc21 (configuration not stated) ?
Solution: 10.9 µM

Exercise: What value of AC50 on UniProt:Q01959 does `OC[C@H]1NC[C@H](O)[C@@H](O)[C@H]1O` have?
Solution: > 30 µM

Exercise: Kindly state the measured AC50 obtained for `COCC(=O)O[C@]1(CCN(C)CCCc2nc3ccccc3[nH]2)CCc2cc(F)ccc2[C@@H]1C(C)C` with UniProt:Q01959.
Solution: 9.53 µM

Exercise: Recorded AC50 for `CC(O)(CC(=O)O)CC(=O)O` with UniProt:Q01959, please?
Solution: > 30 µM

Exercise: # returns recorded AC50 (system: UniProt:Q01959) for `CC1(C)C[C@@H]1C(=O)N/C(=C\CCCCSC[C@H](N)C(=O)O)C(=O)O`
Solution: > 30 µM

Exercise: Lab note: need AC50 with UniProt:Q01959 for entry `COC(=O)N[C@H](C(=O)N1CC2(CC2)C[C@H]1c1ncc(-c2ccc3c(c2)C(F)(F)c2cc(-c4ccc5nc([C@@H]6[C@H]7CC[C@H](C7)N6C(=O)[C@@H](NC(=O)OC)C(C)C)[nH]c5c4)ccc2-3)[nH]1)C(C)C` , please look it up.
Solution: > 30 µM

Exercise: Kindly state the measured AC50 obtained for `O=c1[nH]cc(F)c(=O)[nH]1` with UniProt:Q01959.
Solution: > 30 µM

Exercise: Notebook entry, UniProt:Q01959 assay: AC50 of `O=C(Cc1cccs1)N[C@@H]1C(=O)N2C(C(=O)[O-])=C(C[n+]3ccccc3)CS[C@H]12` = ?
Solution: > 30 µM
